These entries and their values trace back to ChEMBL document CHEMBL4196179.

- Test system: HeLa
- assayDetails: Cytotoxicity against human HeLa cells
- Format: functional, cell-based
propertyName: IC50 (µM)
Field format: number, assumed µM, no unit text.

The reported HeLa IC50 of COc1ccc2c(c1OC)C(=O)O[C@@H]2[C@H]1c2c(cc3c(c2OC)OCO3)CCN1C is 25

----------
- System: PANC-1
- assayDetails: Cell cycle arrest in human PANC1 cells assessed as increase in accumulation at G2/M phase at 10 uM after 18 hrs by Hoechst 33342 staining based FACS analysis relative to control
- Format: functional
Assign label 1 whenever Activity does not fall below 10%; assign label 0 whenever it does.

compound | class
CCNC(=O)N1CCc2c(Br)c3c(c(OC)c2C1Cc1ccc(OC)cc1)OCO3 (stereo unspecified) | label 1
CCNC(=O)N1CCc2c(Br)c3c(c(OC)c2C1c1cccc(OC)c1OC)OCO3 (stereo unspecified) | label 1
COc1ccc(C2c3c(c(Br)c4c(c3OC)OCO4)CCN2C)cc1OC (stereo unspecified) | label 0

Does the compound CCNC(=O)N1CCc2c(Br)c3c(c(OC)c2C1Cc1ccc(OC)c(OC)c1)OCO3 (stereo unspecified) have recorded Activity that is 10% or more? label 0

Does the compound CCNC(=O)N1CCc2c(Br)c3c(c(OC)c2C1c1ccccc1)OCO3 (stereo unspecified) have recorded Activity that is 10% or more? label 0

Does the compound COc1ccc(CC2c3c(c(Br)c4c(c3OC)OCO4)CCN2C)cc1 (stereo unspecified) have recorded Activity that is 10% or more? label 1

----------
- assayDetails: Terminal half life in human
- Type: ADME, organism-based
- experimentalSetup: in vivo, read-out: beta t1/2 (converted)
propertyName: half-life

Looking up COc1ccc2c(c1OC)C(=O)O[C@@H]2[C@H]1c2c(cc3c(c2OC)OCO3)CCN1C [NOSCAPINE] , I see its half-life listed as 4.5 h

----------
- assayDetails: Binding affinity to recombinant P-gp cys-less mutant (unknown origin) in proteoliposomes assessed as increase in ATP hydrolysis rate after 40 mins by colorimetric assay
- Set-up: species or system Homo sapiens
propertyName: pEC50
FYI, pEC50 means -log10 of a concentration in mol per litre.

compound | pEC50
CCNC(=O)N1CCc2c(Br)c3c(c(OC)c2C1Cc1ccc(OC)cc1)OCO3 (stereo not drawn) | 5.62

Looking up COc1ccc2c(c1OC)C(=O)O[C@@H]2[C@H]1c2c(cc3c(c2OC)OCO3)CCN1C , I see its pEC50 listed as 4.16

Looking up COC(=O)C1=C(C)NC(C)=C(C(=O)OCCN(C)Cc2ccccc2)C1c1cccc([N+](=O)[O-])c1 (stereo not drawn) , I see its pEC50 listed as 5.33

----------
Readings of pIC50 for the listed compounds
- System: MCF7
- assayDetails: Antiproliferative activity against human MCF7 cells after 6 days by MTT assay
- Type: functional, cell-based
- experimentalSetup: MCF7, 144 h
FYI, pIC50 means -log10 of a concentration in mol per litre.

In the examples that follow, each entry is paired with its recorded pIC50.
compound | propertyName | dataValue
CCNC(=O)N1CCc2c(Br)c3c(c(OC)c2C1Cc1ccc(OC)cc1)OCO3 (stereo not drawn) | pIC50 | 5.57
CC[C@]1(O)C[C@@H]2CN(CCc3c([nH]c4ccccc34)[C@@](C(=O)OC)(c3cc4c(cc3OC)N(C)[C@H]3[C@@](O)(C(=O)OC)[C@H](OC(C)=O)[C@]5(CC)C=CCN6CC[C@]43[C@@H]65)C2)C1 | pIC50 | 9.44

Pending compound:
The reported MCF7 pIC50 of COc1ccc2c(c1OC)C(=O)O[C@@H]2[C@H]1c2c(cc3c(c2OC)OCO3)CCN1C is 4.73

----------
Readings of Activity for the listed compounds
- System: MCF7
- assayDetails: Cell cycle arrest in human MCF7 cells assessed as increase in accumulation at G2/M phase at 10 uM after 18 hrs by Hoechst 33342 staining based FACS analysis relative to control
- Format: functional
Field format: number, assumed %, no unit text.

compound | measurementTarget | readoutUnits | Activity
COc1cc(C2c3c(c(Br)c4c(c3OC)OCO4)CCN2C)cc(OC)c1OC (configuration not stated) | MCF7 | % | 48
CCNC(=O)N1CCc2c(Br)c3c(c(OC)c2C1Cc1cccc(OC)c1OC)OCO3 (configuration not stated) | MCF7 | % | 11
COc1cccc(CC2c3c(c(Br)c4c(c3OC)OCO4)CCN2C)c1OC (configuration not stated) | MCF7 | % | 32
COc1cc(CC2c3c(c(Br)c4c(c3OC)OCO4)CCN2C)cc(OC)c1OC (configuration not stated) | MCF7 | % | -8
CCNC(=O)N1CCc2c(Br)c3c(c(OC)c2C1Cc1ccc(OC)c(OC)c1)OCO3 (configuration not stated) | MCF7 | % | 12
CCNC(=O)N1CCc2c(Br)c3c(c(OC)c2C1c1ccc(OC)cc1)OCO3 (configuration not stated) | MCF7 | % | 18
CCNC(=O)N1CCc2c(Br)c3c(c(OC)c2C1Cc1ccccc1)OCO3 (configuration not stated) | MCF7 | % | 1
COc1c2c(c(Br)c3c1C(c1ccccc1)N(C)CC3)OCO2 (configuration not stated) | MCF7 | % | 18

Looking up COc1ccc(C2c3c(c(Br)c4c(c3OC)OCO4)CCN2C)cc1OC (configuration not stated) , I see its Activity listed as 20

Looking up COc1c2c(c(Br)c3c1C(Cc1ccccc1)N(C)CC3)OCO2 (configuration not stated) , I see its Activity listed as 9

Looking up COc1ccc2c(c1OC)C(=O)O[C@@H]2[C@H]1c2c(cc3c(c2OC)OCO3)CCN1C [NOSCAPINE] , I see its Activity listed as 2

Looking up CCNC(=O)N1CCc2c(Br)c3c(c(OC)c2C1c1cc(OC)c(OC)c(OC)c1)OCO3 (configuration not stated) , I see its Activity listed as 3

----------
- System: MCF7
- assayDetails: Cell cycle arrest in human MCF7 cells assessed as increase in accumulation at G2/M phase at 10 uM after 18 hrs by Hoechst 33342 staining based FACS analysis relative to control
- Format: functional
Assign 1 whenever Activity does not fall below 20%; assign -1 whenever it does.

See these solved cases before continuing.
compound | class
CCNC(=O)N1CCc2c(Br)c3c(c(OC)c2C1c1ccccc1)OCO3 (stereo not given) | -1
COc1ccc2c(c1OC)CC1c3c(c(Br)c4c(c3OC)OCO4)CCN1C2 (stereo not given) | 1
CCNC(=O)N1CCc2c(Br)c3c(c(OC)c2C1Cc1cc(OC)c(OC)c(OC)c1)OCO3 (stereo not given) | -1
COc1cccc(C2c3c(c(Br)c4c(c3OC)OCO4)CCN2C)c1OC (stereo not given) | 1

Does the compound CCNC(=O)N1CCc2c(Br)c3c(c(OC)c2C1c1cccc(OC)c1OC)OCO3 (stereo not given) have recorded Activity that is 20% or more? -1

Does the compound COc1ccc(C2c3c(c(Br)c4c(c3OC)OCO4)CCN2C)cc1 (stereo not given) have recorded Activity that is 20% or more? 1

Does the compound CCNC(=O)N1CCc2c(Br)c3c(c(OC)c2C1Cc1ccc(OC)cc1)OCO3 (stereo not given) have recorded Activity that is 20% or more? 1

Does the compound CCNC(=O)N1CCc2c(Br)c3c(c(OC)c2C1c1ccc(OC)c(OC)c1)OCO3 (stereo not given) have recorded Activity that is 20% or more? -1

Does the compound COc1ccc(CC2c3c(c(Br)c4c(c3OC)OCO4)CCN2C)cc1OC (stereo not given) have recorded Activity that is 20% or more? -1

Does the compound COc1ccc(CC2c3c(c(Br)c4c(c3OC)OCO4)CCN2C)cc1 (stereo not given) have recorded Activity that is 20% or more? 1

----------
Readings of Activity for the listed compounds
- Tested on: PANC-1
- assayDetails: Cell cycle arrest in human PANC1 cells assessed as increase in accumulation at G2/M phase at 10 uM after 18 hrs by Hoechst 33342 staining based FACS analysis relative to control
- Type: functional
A complete answer gives the number followed by the unit.

compound | dataValue
CCNC(=O)N1CCc2c(Br)c3c(c(OC)c2C1c1ccc(OC)c(OC)c1)OCO3 (stereo not given) | 11%
COc1ccc2c(c1OC)C(=O)O[C@@H]2[C@H]1c2c(cc3c(c2OC)OCO3)CCN1C | 16%
CCNC(=O)N1CCc2c(Br)c3c(c(OC)c2C1c1ccc(OC)cc1)OCO3 (stereo not given) | 21%

Looking up COc1ccc2c(c1OC)CC1c3c(c(Br)c4c(c3OC)OCO4)CCN1C2 (stereo not given) , I see its Activity listed as 9%

Looking up CCNC(=O)N1CCc2c(Br)c3c(c(OC)c2C1Cc1cc(OC)c(OC)c(OC)c1)OCO3 (stereo not given) , I see its Activity listed as -4%

----------
- System: PANC-1
- assayDetails: Cell cycle arrest in human PANC1 cells assessed as increase in accumulation at G2/M phase at 10 uM after 18 hrs by Hoechst 33342 staining based FACS analysis relative to control
- Type: functional
Assign Satisfied whenever Activity does not fall below 8%; assign Not satisfied whenever it does.

See these solved cases before continuing.
compound | class
COc1ccc(CC2c3c(c(Br)c4c(c3OC)OCO4)CCN2C)cc1OC (stereo not given) | Not satisfied
COc1cc(C2c3c(c(Br)c4c(c3OC)OCO4)CCN2C)cc(OC)c1OC (stereo not given) | Satisfied
CCNC(=O)N1CCc2c(Br)c3c(c(OC)c2C1Cc1cccc(OC)c1OC)OCO3 (stereo not given) | Satisfied

Alright, here's another compound for you.
Does the compound CCNC(=O)N1CCc2c(Br)c3c(c(OC)c2C1c1cc(OC)c(OC)c(OC)c1)OCO3 (stereo not given) have recorded Activity that is 8% or more? Not satisfied
